Every entry's value here was drawn from ChEMBL document CHEMBL1201862.

test system: SF-268; experiment: NCI tumour cell line growth inhibition, 48 h
The source made the active and inactive calls. Cut-off read from the data, not from the text of the source: active = GI50 up to about 1.1 µM and inactive = higher.
readout type: GI50

Use these answered entries as a reference point.
- [O-]/[N+](=N/c1ncc(-c2ccccc2)cn1)c1ncc(-c2ccccc2)cn1: > 84.7 µM (inactive)
- [N-]=[N+]=N[C@H]1C[C@@H](CO)O[C@H]1n1cnc2c(N)ncnc21: > 100 µM (inactive)
- Cc1ccc(NC(=O)C2C(=O)N(c3ccc(C)c(C)c3)C(=O)/C2=N\NC(N)=O)cc1C (stereo not given): 74 µM (inactive)
- COC(=O)c1cccc2c1Oc1ccccc1S2: 38.8 µM (inactive)

Lab note: next molecule to report on.
Problem: Fill in: GI50 of CC1(C)OC2OC(C(=O)c3ccccc3)C3OC(C)(C)OC3C2O1 (stereo not given) is ___
Result: > 100 µM (inactive)

###

Here, each record is paired with measured GI50 data.
tested on: LOX IMVI; assay: NCI tumour cell line growth inhibition, 48 h
The source made the active and inactive calls. Rule as the data show it: active = GI50 up to about 1.1 µM and inactive = higher.

Use these answered entries as a reference point.
* Cc1cccc(C)c1NC(=O)CCc1nnc(S)[nH]1 | > 100 µM (inactive)
* COc1ccc(C2[C@H]3C(=O)N(c4ccc(Cc5ccc(N6C(=O)[C@@H]7ON(c8ccccc8)C(c8ccc(OC)cc8)[C@@H]7C6=O)cc5)cc4)C(=O)[C@H]3ON2c2ccccc2)cc1 (stereo partly drawn) | > 100 µM (inactive)
* CCO/C(CCn1[nH]c(=O)c(Cl)c(Cl)c1=O)=N\NC(=O)C(=O)NN | > 100 µM (inactive)
* COc1ccc(N2C(=O)C3c4[nH]c5ccccc5c4C4CCCCCCC4C3C2=O)cc1 (stereo not drawn) | 5 µM (inactive)
* CC1(CCC2C=CCC2)CCCNC1=S (stereo not drawn) | > 10 µM (inactive)

Problem: For LOX IMVI, provide GI50 of COc1ccc2c(c1)CC[C@@H]1[C@@H]2CC[C@]2(C)C(=O)/C(=C/c3ccc(O)c(OC)c3)C[C@@H]12 please.
Result: 36.9 µM (inactive)

Problem: For LOX IMVI, provide GI50 of C=CCN1C(=O)/C(=C/c2ccco2)N=C1SC1OC(COC(C)=O)C(OC(C)=O)C(OC(C)=O)C1OC(C)=O (stereo not drawn) please.
Result: > 100 µM (inactive)

Problem: For LOX IMVI, provide GI50 of C=CCSc1nc2ccccc2c(=O)n1Cc1ccco1 please.
Result: > 100 µM (inactive)

###

test system: SN12C; assay: NCI tumour cell line growth inhibition, 48 h
Activity calls are given as the source filed them. No stated cut-off is given here; in the data, active = GI50 up to about 1.1 µM and inactive = higher.
Pick from YES (active), NO (inactive) when you respond.

Below are worked cases with known answers.
• CCC(C)NC1=C(NC(C)=O)C(=O)c2ccccc2C1=O (stereo not drawn) = NO
• Cc1occc(=O)c1O [MALTOL] = NO
• COc1ccc2nc3cc(Cl)ccc3c(Sc3ccc([N+](=O)[O-])cc3)c2c1 = NO

Problem: How did this test come out for CCOc1cc(C2SCC(=O)N2c2nc3cc4sc(N5C(=O)CSC5c5ccc(O)c(OCC)c5)nc4cc3s2)ccc1O (stereo not drawn) ?
Result: NO

Problem: How did this test come out for COC(=O)c1c(CC(=O)OC(C)C)cc2n(c1=O)Cc1c-2nc2ccccc2c1OC ?
Result: NO

Problem: How did this test come out for O=C(Nc1cccc(O)c1)C(=O)C1C(=O)NC(=S)NC1=O ?
Result: NO

Problem: How did this test come out for Oc1cc(-c2ccc(Oc3ccccc3)cc2)nc2cc3c(cc12)OCO3 ?
Result: NO

Problem: How did this test come out for COc1cccc(-c2nc3c(C(=O)NCCN(C)C)cccc3[nH]2)c1 ?
Result: NO

Problem: How did this test come out for CN1C(=O)C(O)CC1c1ccccc1F (stereo not drawn) ?
Result: NO
